- Target Or System: T1, CA018 gp140/420 (A/G) (HIV-1)
- T1 construct: also called gp120 of CA18
- Assay Summary: SPR
Observed Property: Kd
Give the value; after it, write the unit.

Binder: L92E7 (VHH, Purified by IMAC; tags not written into the chain) VHH: EVQLVESGGGLVQPGGSLRLSCAASGNIVSIDAAGWFRQAPGKQREPVATILTGGATNYADSVKGRFTISRDNAKNTVYLQMSSLKPEDTAVYYCYAPMIYYGGRYSDYWGQGTQVTVSS
Result: 7 nM
--
Binder: L91B5 (VHH, Purified by IMAC) VHH: EVQLVESGGGLVQPGGSLRLSCAASGATFDDYAIGWFRQAPGKEREGVSYIGCNDGATYYAGSVKGRFTISCDYAKNTVYLQMNSLKPEDTAVYYCAAAAQWATIRWIHEYDYNIWGQGTQVTVSS
Result: 15.6 nM

Reported Kd for L8Cj3 (VHH, 207 chosen because J3r is said to carry S82aN against L8Cj3; also called L8CjJ3; L9Cj3) VHH: EVQLVESGGGLVQAGGFLRLSCELRGSIFNQYAMAWFRQAPGKEREFVAGMGAVPHYGEFVKGRFTISRDNAKSTVYLQMSSLKPEDTAIYFCARSKSTYISYNSNGYDYWGRGTQVTVSS : what is it? 8.86 nM

Attribution: patent US20150158934A1
